Taken from ChEMBL document CHEMBL5604062.

Reported IC50 values for the following molecules.
- assayedSystem: Nonstructural protein 3 (Zika virus)
- Sequence (A0A024AXB9 whole entry): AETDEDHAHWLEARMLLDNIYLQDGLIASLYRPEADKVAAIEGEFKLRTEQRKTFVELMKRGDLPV
- assayRemarks: Functional biochemical assay to identify treatments for viral infectious disease that targets Zika NS2B-NS3 protease. Utilizing a direct enzyme activity measurement method, reading the fluorescence intensity is used to characterize the relative potency of inhibitors as IC50.
- Set-up: species or system PRVABC59

O=C(Nc1ccc(Cl)cc1C(=O)Nc1cccc(C2CCNCC2)c1)OCc1ccccc1
> 99.5 µM
CCn1c(=O)c(N2CC[C@]3(CNC(=O)O3)C2)nc2ccccc21
> 99.5 µM
N=C(N)NCCc1cccc(B(O)O)c1
> 100 µM
CCN1CCN(c2ccc(NS(=O)(=O)c3ccc(Cl)cc3C(=O)O)cc2)CC1
> 99.5 µM

Here's the next entry for you.
Write down IC50 measured for item O=C(Nc1ccc2c(c1)CNC2)N1CCC2(C1)CC(F)(F)C2
15.7 µM
